Origin of values: the array DNA melting data of Ke et al. (doi:10.1101/2024.01.08.574731)

- Measurement protocol: melting temperature; fluorescence melt of hairpins on a sequencing array, two-state fit, raised by 9.35 °C to match UV melts
- Experimental parameters: sodium 0.088 M
Tm of 40 °C or higher: Met. Under 40 °C: Not met.

// below: answered sequences
• GCCGCGCGAAAGCCAGGC (((..((....))..))) = Met
• GTTCCACGAAAGTGAAC (((.(((....)))))) = Met
• GAATACGGAAACGTATTC (((((((....))))))) = Met

Record GACAGCGGAAACACTGTC (((((.(....).))))) ; criterion: Tm no lower than 40 °C. Met?
Met

Record GCTGAGCGAAAGCCAAGC (((..((....))..))) ; criterion: Tm no lower than 40 °C. Met?
Met

Record GTAGCACCGAAAGGTTAC (((..(((....)))))) ; criterion: Tm no lower than 40 °C. Met?
Not met

---

Recorded measurements of Tm, one per entry
- Measurement protocol: melting temperature; fluorescence melt of hairpins on a sequencing array, two-state fit, raised by 9.35 °C to match UV melts
- Experimental parameters: sodium 0.088 M
Use °C as the unit, but write only the number.

Some sequences with recorded Tm:
* GATCAAGCACTTGATC ((((((....)))))) | 50.4
* GTGTGAACGAAAGTTCAC (((..(((....)))))) | 65.6
* GCAGTGCGAAAGCAGCGC ((..(((....)))..)) | 59.7
* GGACCGCGAAAGCGCTCC (((.(((....))).))) | 46.8
* CGTGACGGAAACGTAACG (((.(((....))).))) | 50.3
* GGTGTGCCGAAAGGCACC (((..(((....)))))) | 49.7

Find the recorded Tm belonging to GCGGGTAGCCGC ((((....)))) and report it.
64

Find the recorded Tm belonging to GATCCGTTTCCGGATC ((((((....)))))) and report it.
58.9

Find the recorded Tm belonging to GGCCTCGAAAGAGCTGCC ((((((....)))..))) and report it.
45

Find the recorded Tm belonging to GCTTTCGGAAACGAAGGC ((.((((....)))).)) and report it.
50.9

Find the recorded Tm belonging to GATCTGGAGCCAGATC ((((((....)))))) and report it.
49.5

Find the recorded Tm belonging to GGGCATGGAAACATGTCC ((.((((....)))).)) and report it.
54.3

---

- Measurement protocol: melting temperature; fluorescence melt of hairpins on a sequencing array, two-state fit, raised by 9.35 °C to match UV melts
- Experimental parameters: sodium 0.088 M
Experimental endpoint: Tm (°C)
Use °C as the unit, but write only the number.

Some sequences with recorded Tm:
* GGTTAGGGAAACCTAACC (((((((....))))))) | 58.3
* GCACTGCGAAAGCCGTGC ((((.((....)).)))) | 63.3
* GGTGACGAAAGTCTTACC ((((((....)))..))) | 35.8

Now let's try a different one.
Find the recorded Tm belonging to GATCACTTTGTGATC ((((((...)))))) and report it.
63.1
